Experiment: chemical genetic growth profiling, strain panel (AID 1159580);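 note: tested at 20 µM; growth read once vehicle control cultures reached saturation at 30 °C; 1 = growth at the plate median or of vehicle wells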
Conditions: S. cerevisiae deletion strains, growth OD, locus YKR001C, strain vps1, active compounds read low
Hit rate of the full screen: of about 5,500 compounds, about 2,000 (36%) were called active. Another 18% or so got no clear call; they are omitted. This is one part of the list.
Mark each entry fulfilled if its normalized growth sits below 1, and not fulfilled for all others.

Would you please look over these solved cases?
compound: CCCc1nn(C)c2c(=O)[nH]c(-c3cc(S(=O)(=O)N4CCN(C)CC4)ccc3OCC)nc12
classification: fulfilled
--
compound: CC[C@@]1(O)C(=O)OCc2c1cc1n(c2=O)Cc2cc3ccccc3nc2-1
classification: fulfilled
--
compound: C[C@@H]1CC[C@@]23CCC4(C)[C@@](C=CC5[C@@]6(C)CC[C@H](O)C(C)(C)C6CC[C@]54C)(OC2=O)C3[C@H]1C (some centres not stated)
classification: not fulfilled

Query compound follows.
Q: Take the compound `Cc1ccc(C(C)C)c(O)c1C(=O)O` and say whether its normalized growth is less than 1.
Result: fulfilled

---

Assay: chemical genetic growth profiling, strain panel (AID 1159580)
Conditions: S. cerevisiae deletion strains, growth OD, locus YML124C, strain tub3, active compounds read low
In all, about 5,500 compounds went through this assay and about 2,000 (36%) were called active. Inconclusive results (about 18%) are left out. Some of the results follow.
// reported normalized growth per item

# example entries with known answers
molecule: CC(=O)OCC(=O)[C@@]1(O)CCC2C3C[C@H](C)C4=CC(=O)C=CC4(C)C3[C@@H](O)CC21C (stereo not given in full)
readoutValue: 1 (inactive)
--
molecule: CCn1nc(C(=O)O)c(=O)c2cc3c(cc21)OCO3
readoutValue: 1.02 (inactive)
--
molecule: CC1(C)Oc2ccc3ccc(=O)oc3c2CC1O (stereo not given)
readoutValue: 0.994 (inactive)
--
molecule: CC(=O)O[C@@H]1c2c(ccc3ccc(=O)oc23)OC(C)(C)[C@@H]1OC(=O)CC(C)C
readoutValue: 1 (inactive)

Proceed to the following item.
Q: Query (molecule): C[C@@H]1CC[C@@]23CCC4(C)[C@@](C=CC5[C@@]6(C)CC[C@H](O)C(C)(C)C6CC[C@]54C)(OC2=O)C3[C@H]1C (stereo not given in full) ; field requested: normalized growth
Result: 1 (inactive)

---

Assay: chemical genetic growth profiling, strain panel (AID 1159580)
Conditions: S. cerevisiae deletion strains, growth OD, locus YAL013W, strain DEP1, active compounds read low
In all, about 5,500 compounds went through this assay and about 2,000 (36%) were called active. Another 18% or so got no clear call; they are omitted. Some of the results follow.
Each entry below lists one item and its recorded normalized growth value.
Just the number, please, no unit after it.

Study these solved cases before continuing.
compound: O=C(O)c1ccccc1O
readoutValue: 1.01

compound: OCC(O)Cn1c2ccccc2c2ccccc21 (centres undefined)
readoutValue: 1.01

compound: CC1(C)C(O)CC(=O)C2(C)C1CC(O)C1(C)C2CCC2(C)C(c3ccoc3)OC(=O)C3OC321 (centres undefined)
readoutValue: 1

Attention now turns to another entry.
Q: Name the recorded normalized growth for `O=C(O)c1oc(C(=O)O)c(OCc2ccccc2)c1OCc1ccccc1` .
Result: 1.01

---

Experiment: chemical genetic growth profiling, strain panel (AID 1159580)
Conditions: S. cerevisiae deletion strains, growth OD, locus YNL209W, strain ssb2, active compounds read low
The campaign covered roughly 5,500 compounds. About 2,000 (36%) were called active. Roughly 18% stayed inconclusive and do not appear here. This is one part of the list.
Catalogue of normalized growth readings, one per entry.

Sample records with normalized growth:
molecule: CN(C)CC[C@H](c1ccc(Cl)cc1)c1ccccn1
quantityName: normalized growth
readoutValue: 1 (inactive)
//
molecule: COC(=O)NC(=S)Nc1ccccc1NC(=S)NC(=O)OC
quantityName: normalized growth
readoutValue: 1.01 (inactive)
//
molecule: COC(=O)N/N=C\c1c[n+]([O-])c2ccccc2[n+]1[O-]
quantityName: normalized growth
readoutValue: 0.987 (inactive)
//
molecule: COC(=O)C[C@H]1C(C)(C)[C@@H](O)[C@@H]2CC3=C4CC(O)O[C@@H](c5ccoc5)[C@]4(C)CCC3[C@@]1(C)C2=O (stereo not given in full)
quantityName: normalized growth
readoutValue: 1 (inactive)

Q: # lookup: normalized growth of C[C@@H](CO)NC(=O)C1C=C2c3cccc4[nH]cc(c34)C[C@H]2N(C)C1 (stereo not given in full)
Result: 1 (inactive)

Q: What does the data say about its normalized growth? Entry: `CCn1nc(C(=O)O)c(=O)c2cc3c(cc21)OCO3`
Result: 1 (inactive)

Q: Suppose we examine the molecule `C[N+]1(C)C[C@H](O)[C@H](C(=O)[O-])C1` ; what normalized growth value has been reported?
Result: 1.01 (inactive)

Q: Look up normalized growth: C[C@@H]1O[C@@H](O[C@H]2CC[C@]3(C=O)C4CC[C@]5(C)[C@@H](C6=CC(=O)OC6)CC[C@]5(O)C4CC[C@]3(O)C2)[C@H](O)[C@H](O)[C@H]1O (stereo not given in full)
Result: 1 (inactive)

Q: What value of measured normalized growth is listed for CC1(C)S[C@@H]2C(N3C(=O)[C@@H](c4ccccc4)NC3(C)C)C(=O)N2[C@H]1C(=O)O (stereo not given in full) ?
Result: 1.02 (inactive)

Q: Field request: normalized growth | item: C[C@]12CCC3C(CC[C@]4(O)C[C@@H](O)CC[C@]34C=O)[C@@]1(O)CCC2C1=CC(=O)OC1 (stereo not given in full)
Result: 0.974 (inactive)

Q: Would you kindly share the measured normalized growth for `COc1cc(C(=O)N2CCOCC2)cc(OC)c1OC` ?
Result: 0.981 (inactive)

Q: For the molecule `CC(C)c1cccc(O)c(=O)c1` , what normalized growth is on record?
Result: 0.0585 (active)

Q: Recorded normalized growth for CC(=O)OC1CC[C@@]2(C)C(CCC3C2CC[C@]2(C)C(C4=CC(=O)OC4)C(OC(C)=O)CC32O)C1 (stereo not given in full) , please?
Result: 0.996 (inactive)

Q: Consider the molecule `NCCCC(O)(P(=O)(O)O)P(=O)(O)O` and give its measured normalized growth.
Result: 0.982 (inactive)

Q: I have this molecule here, `CC(C)c1cccc(C(C)C)c1O` , and I need its recorded normalized growth.
Result: 0.992 (inactive)

---

Listed below: normalized growth values for each entry.
Assay: chemical genetic growth profiling, strain panel (AID 1159580);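 note: tested at 20 µM; growth read once vehicle control cultures reached saturation at 30 °C; 1 = growth at the plate median or of vehicle wells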
Conditions: S. cerevisiae deletion strains, growth OD, locus YCL016C, strain dcc1, active compounds read low
The campaign covered roughly 5,500 compounds. About 2,000 (36%) were called active. Inconclusive results (about 18%) are left out. This is one part of the list.
Number only, please.

Please review the entries below; each comes with its answer.
compound: Cc1ncc(CO)c(CO)c1O
readoutValue: 1.01

compound: COC1C(O)C(O[C@H]2CC[C@]3(C=O)C4C(CC[C@]3(O)C2)[C@@]2(O)CC[C@H](C3=CC(=O)OC3)[C@@]2(C)C[C@H]4OC(C)=O)OC(C)C1OC(C)=O (stereo not given in full)
readoutValue: 1

compound: Cc1cc(N)c2ccccc2[n+]1CCCCCCCCCC[n+]1c(C)cc(N)c2ccccc21
readoutValue: 0.0686

Now for a further compound.
Q: Give the measured normalized growth of `CSc1nc(NC(C)C)nc(NC(C)C)n1` .
Result: 0.967

---

Assay: chemical genetic growth profiling, strain panel (AID 1159580);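 note: tested at 20 µM; growth read once vehicle control cultures reached saturation at 30 °C; 1 = growth at the plate median or of vehicle wells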
Settings: S. cerevisiae deletion strains, growth OD, locus YPR119W, strain clb2, active compounds read low
The campaign covered roughly 5,500 compounds. About 2,000 (36%) were called active. Inconclusive results (about 18%) are left out. Some of the results follow.
normalized growth strictly less than 1 = met. Otherwise not met.

Record excerpt, results attached:
compound: O=c1c(O)cc([C@H]2Oc3cc(O)cc(O)c3C[C@H]2O)cc2c([C@H]3Oc4cc(O)cc(O)c4C[C@H]3O)cc(O)c(O)c12
classification: not met
//
compound: Cc1ccc(C(C)C)c(O)c1C(=O)O
classification: met
//
compound: O=c1c(O)cccc2c(C3Oc4cc(O)cc(O)c4CC3O)cc(O)c(O)c12 (stereo not given)
classification: met

Q: Report whether reported normalized growth is lower than 1 (strictly) for CC1=CC(=O)C2C(C)(C)CCC[C@]2(C)[C@@]1(O)CCc1ccoc1 (stereo not given in full)
Result: met

---

Assay: chemical genetic growth profiling, strain panel (AID 1159580);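 note: tested at 20 µM; growth read once vehicle control cultures reached saturation at 30 °C; 1 = growth at the plate median or of vehicle wells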
Conditions: S. cerevisiae deletion strains, growth OD, locus YOR106W, strain vam3, active compounds read low
Hit rate of the full screen: of about 5,500 compounds, about 2,000 (36%) were called active. Inconclusive results (about 18%) are left out. The list shows a part of the results.
Reported normalized growth values for a set of compounds

Worked examples, 5 compounds total:
compound: COc1ccc(-c2cc(=O)c3c(O)cc(O)cc3o2)cc1
readoutValue: 0.93 (inactive)
//
compound: CC(=O)O[C@@H]1CC2C(C)(CC[C@H](O)C2(C)C)C2CC[C@]3(C)C(=CC(=O)O[C@H]3c3ccoc3)C21C (stereo not given in full)
readoutValue: 1 (inactive)
//
compound: O=C(Oc1ccccc1C(=O)O)c1ccccc1O
readoutValue: 0.958 (inactive)
//
compound: O=C(CCCN1CCC(O)(c2ccc(Cl)cc2)CC1)c1ccc(F)cc1
readoutValue: 0.935 (inactive)
//
compound: CN(C)C(=O)C(CCN1CCC(O)(c2ccc(Cl)cc2)CC1)(c1ccccc1)c1ccccc1
readoutValue: 1 (inactive)

Next compound, please.
Q: I am curious: what normalized growth value has been reported for `O=C(O)C1=CC(=C(c2ccc(O)c(C(=O)O)c2)c2ccc(O)c(C(=O)O)c2)C=CC1=O` ?
Result: 0.836 (active)
